Numbers sourced from patent US20180298070A1.

This listing pairs binders with measured pIC50.
- assayed-target: T1, human GIPR (human), P48546
- T1 chain: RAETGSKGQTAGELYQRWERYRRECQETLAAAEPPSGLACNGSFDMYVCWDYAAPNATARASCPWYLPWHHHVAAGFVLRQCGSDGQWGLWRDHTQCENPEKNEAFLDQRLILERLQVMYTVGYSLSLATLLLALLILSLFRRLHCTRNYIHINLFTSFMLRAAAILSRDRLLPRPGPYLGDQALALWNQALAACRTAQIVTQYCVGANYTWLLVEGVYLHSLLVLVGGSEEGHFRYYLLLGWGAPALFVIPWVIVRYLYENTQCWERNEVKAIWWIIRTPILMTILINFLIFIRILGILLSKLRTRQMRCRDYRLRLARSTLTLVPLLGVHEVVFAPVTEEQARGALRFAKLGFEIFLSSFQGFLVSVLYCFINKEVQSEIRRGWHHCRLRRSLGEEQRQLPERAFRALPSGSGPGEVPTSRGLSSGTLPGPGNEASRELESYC
- protocol: [125I]GIP displacement, hGIPR VLP
Starred links: 1 amine or outer side, 2 acyl side, 3 side chain; linkers in the order of their positions; H or OH if unused. Non-standard residues stand in square brackets, D forms with d. Groups on a side chain read outwards from the residue. Primed or numbered codes have the meaning given here. No end group written: not given here. *: point of attachment. C20 diacid = O=C(O)CCCCCCCCCCCCCCCCCCC(=O)*; γGlu = O=C(O)[C@H](CCC(=O)[*:2])N[*:1]; NMeY = CN[C@@H](Cc1ccc(O)cc1)C(=O)O; αMeF = C[C@](N)(Cc1ccccc1)C(=O)O; PEG2′ = not defined here; PEG3′ = not defined here; Dda = not defined here; Aib = CC(C)(N)C(=O)O
A value of pIC50 is the negative decimal logarithm of a concentration given in moles per litre.

| binder | pIC50 |
| --- | --- |
| [NMeY][Aib]EGTFISDYSIALDRIAQ[Aib]N[αMeF]VNWLLAQRPSSGAPPPSR (not fully specified (C-terminus); ends and bridges not checked) [Compound 72] | 8.57 |
| Y[Aib]EGTFISDYSK([PEG3′-PEG3′-γGlu-C20 diacid])ALDRIHQQDFVNWLLAQRPSSGAPPPS (not fully specified (C-terminus); ends and bridges not checked) [Compound 238] | 7.37 |
| Y[Aib]EGTFISDYSK([PEG2′-Dda])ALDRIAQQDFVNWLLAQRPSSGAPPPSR (ends and bridges not checked) [Compound 188] | 8.57 |

Consider now this further binder.
Per the record, Y[Aib]EGTFISDYSIALDRK([PEG3′-PEG3′-γGlu-C20 diacid])HQQDFVNWLLAQRPSSGAPPPS (not fully specified (C-terminus); ends and bridges not checked) [Compound 237] has pIC50 of 6.96
